Biological target: caspase-3 (Homo sapiens, UniProt P42574)
Sequence (P42574 29-175 limits assumed): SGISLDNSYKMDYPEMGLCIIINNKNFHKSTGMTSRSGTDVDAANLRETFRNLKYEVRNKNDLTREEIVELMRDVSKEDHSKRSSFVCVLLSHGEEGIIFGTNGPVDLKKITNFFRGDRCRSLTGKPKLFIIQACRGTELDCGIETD
Sequence (P42574 176-277 limits assumed): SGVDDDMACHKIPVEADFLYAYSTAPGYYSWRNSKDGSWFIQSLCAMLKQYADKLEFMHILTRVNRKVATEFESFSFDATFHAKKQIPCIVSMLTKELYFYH
MEASURED METRIC: IC50

Exam item: # lookup: IC50 of C[C@H](NC(=O)C(=O)Nc1ccccc1C(C)(C)C)C(=O)N[C@@H](CC(=O)O)C(=O)COc1c(F)c(F)cc(F)c1F
Marked response: 35 nM
